# test.target: HDAC6 (Homo sapiens)
# Sequence (Q9UBN7 whole entry): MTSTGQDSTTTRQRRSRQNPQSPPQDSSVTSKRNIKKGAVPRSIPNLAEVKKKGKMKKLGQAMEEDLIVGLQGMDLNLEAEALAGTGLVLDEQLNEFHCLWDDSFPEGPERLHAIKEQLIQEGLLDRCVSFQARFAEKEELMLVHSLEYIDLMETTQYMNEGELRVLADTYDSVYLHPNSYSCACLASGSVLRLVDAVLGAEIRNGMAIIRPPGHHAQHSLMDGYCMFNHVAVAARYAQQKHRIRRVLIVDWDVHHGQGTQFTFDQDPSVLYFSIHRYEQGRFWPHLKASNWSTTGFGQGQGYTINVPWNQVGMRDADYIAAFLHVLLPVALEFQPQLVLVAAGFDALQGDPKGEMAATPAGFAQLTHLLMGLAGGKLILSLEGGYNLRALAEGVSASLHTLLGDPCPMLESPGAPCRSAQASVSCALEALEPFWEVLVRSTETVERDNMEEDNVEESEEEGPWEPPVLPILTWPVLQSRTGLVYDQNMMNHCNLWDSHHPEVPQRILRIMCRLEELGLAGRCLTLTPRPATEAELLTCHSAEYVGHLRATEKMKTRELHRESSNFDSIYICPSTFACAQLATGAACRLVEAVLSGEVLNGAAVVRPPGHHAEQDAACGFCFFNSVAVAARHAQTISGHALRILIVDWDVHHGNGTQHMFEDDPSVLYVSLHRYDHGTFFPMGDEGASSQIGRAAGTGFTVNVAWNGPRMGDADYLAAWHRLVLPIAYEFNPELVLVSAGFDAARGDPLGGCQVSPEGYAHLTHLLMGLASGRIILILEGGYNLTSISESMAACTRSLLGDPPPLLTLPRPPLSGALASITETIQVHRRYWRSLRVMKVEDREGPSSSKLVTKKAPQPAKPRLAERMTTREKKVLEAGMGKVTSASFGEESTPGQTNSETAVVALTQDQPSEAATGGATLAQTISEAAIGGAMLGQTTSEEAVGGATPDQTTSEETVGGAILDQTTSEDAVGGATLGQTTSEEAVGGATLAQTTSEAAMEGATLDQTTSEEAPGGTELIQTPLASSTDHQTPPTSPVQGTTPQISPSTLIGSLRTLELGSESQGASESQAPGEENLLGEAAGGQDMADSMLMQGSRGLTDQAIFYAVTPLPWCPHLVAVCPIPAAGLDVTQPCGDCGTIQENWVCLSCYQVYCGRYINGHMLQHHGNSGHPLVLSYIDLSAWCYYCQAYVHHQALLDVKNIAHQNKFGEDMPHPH
# experiment: Human HDAC enzyme inhibitor Fluor-de-Lys assay, HDAC6
# Type: biochemical
pIC50: −log10 of the molar value.
Tick 1 (yes) if pIC50 is 5 or greater. Tick 0 (no) if pIC50 is less than 5.

| compound | test.target | label.class |
| --- | --- | --- |
| CCC(=O)CCCCC[C@H](NC(=O)[C@H]1CC12CCN(C)CC2)c1ncc(-c2ccc3cc(C#N)ccc3c2)[nH]1 | HDAC6 (Homo sapiens) | 1 (yes) |
| CCC(=O)CCCCC[C@H](NC(=O)[C@H]1CC12CCN(C)CC2)c1ncc(-c2cc3ccccc3nc2OC)o1 [Compound 125] | HDAC6 (Homo sapiens) | 1 (yes) |
| CCC(=O)CCCCC[C@H](NC(=O)[C@H]1CC12CCN(CC)CC2)c1ncc(-c2ccc3c(=O)n(C4CC4)ccc3c2)[nH]1 | HDAC6 (Homo sapiens) | 1 (yes) |
| COc1cc2nc(C)ccc2cc1-c1cnc([C@H](CCCCCC(=O)CC2CC2)NC(=O)[C@H]2CC23CCN(C)CC3)o1 | HDAC6 (Homo sapiens) | 0 (no) |
| CCC(=O)CCCCC[C@H](NC(=O)C1=NOC2(CCN(C)CC2)C1)c1ncc(-c2ccc3nc(C4CC4)ccc3c2)o1 | HDAC6 (Homo sapiens) | 0 (no) |
| CCC(=O)CCCCC[C@H](NC(=O)[C@H]1CC12CCN(CC)CC2)c1ncc(-c2ccc(-c3ncco3)cc2)o1 | HDAC6 (Homo sapiens) | 1 (yes) |
